# experimental_protocol: Chemical stability of the compound in aqueous buffer assessed as drug recovery after 16 hrs at pH 7.4 by HPLC analysis
# Type: physicochemical
# conditions_used: read-out: Drug recovery
Overview of recorded remaining at 16 h for various compounds
property: remaining at 16 h (%)

CC1=C[C@]23C(=O)[C@@H](C=C(CO)[C@@H](O)[C@]2(O)[C@H]1OC(=O)C1CCCC1)[C@H]1[C@@H](C[C@H]3C)C1(C)C	30
CC1=C[C@]23C(=O)[C@@H](C=C(CO)[C@@H](O)[C@]2(O)[C@H]1OC(=O)c1ccccc1)[C@H]1[C@@H](C[C@H]3C)C1(C)C	30
CC1=C[C@]23C(=O)[C@@H](C=C(CO)[C@@H](O)[C@]2(O)[C@H]1OC(=O)C(C)C)[C@H]1[C@@H](C[C@H]3C)C1(C)C	30
